- MEASURED TARGET: Focal adhesion kinase 1 (Homo sapiens) (UniProt Q05397)
- Sequence (Q05397 whole entry, looked up): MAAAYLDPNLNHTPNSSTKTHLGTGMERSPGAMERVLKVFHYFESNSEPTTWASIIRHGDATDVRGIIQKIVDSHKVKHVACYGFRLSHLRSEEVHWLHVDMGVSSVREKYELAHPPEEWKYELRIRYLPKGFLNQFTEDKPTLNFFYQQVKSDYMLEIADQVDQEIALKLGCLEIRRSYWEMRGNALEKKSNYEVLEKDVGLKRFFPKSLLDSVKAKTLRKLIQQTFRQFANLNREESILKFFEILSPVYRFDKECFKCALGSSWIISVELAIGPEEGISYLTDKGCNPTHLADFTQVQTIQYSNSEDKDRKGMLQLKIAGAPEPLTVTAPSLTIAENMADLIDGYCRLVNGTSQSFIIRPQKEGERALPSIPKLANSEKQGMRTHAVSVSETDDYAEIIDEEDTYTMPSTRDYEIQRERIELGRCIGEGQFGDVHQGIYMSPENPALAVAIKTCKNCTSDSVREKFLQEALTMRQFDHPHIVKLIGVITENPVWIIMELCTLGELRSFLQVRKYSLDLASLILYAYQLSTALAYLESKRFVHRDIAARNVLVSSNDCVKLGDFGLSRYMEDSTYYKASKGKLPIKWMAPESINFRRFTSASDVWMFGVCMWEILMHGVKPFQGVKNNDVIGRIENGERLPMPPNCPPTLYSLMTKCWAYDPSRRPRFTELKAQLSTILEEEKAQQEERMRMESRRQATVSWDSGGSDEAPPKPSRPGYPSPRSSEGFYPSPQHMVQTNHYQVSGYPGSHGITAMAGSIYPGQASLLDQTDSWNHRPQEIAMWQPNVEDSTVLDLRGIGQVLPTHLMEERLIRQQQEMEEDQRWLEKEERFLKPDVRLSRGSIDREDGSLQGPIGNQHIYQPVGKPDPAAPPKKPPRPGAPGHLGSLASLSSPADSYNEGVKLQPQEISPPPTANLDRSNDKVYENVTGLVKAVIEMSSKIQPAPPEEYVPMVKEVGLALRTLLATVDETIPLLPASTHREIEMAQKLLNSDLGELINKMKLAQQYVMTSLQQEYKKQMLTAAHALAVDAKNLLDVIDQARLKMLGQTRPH
- EXPERIMENTAL DETAILS: small-molecule microarray binders of FAK, primary screen, biochemical, 635/667 nm fluorescence, BSA, DTT (AID 1130);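 note: composite of spot emission at 667 nm and signal to noise over triplicate slides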
- MEASUREMENT CONDITIONS: PTK2 binding, 635 nm fluorescence, higher = more signal
MEASUREMENT KIND: composite z-score

1. COC(=O)[C@@]1(Cc2ccc(OC)cc2)[C@H]2c3cc(C(=O)N4CCCC4)n(Cc4c(-c5ccccc5)noc4C)c3C[C@H]2CN1C(=O)c1ccccc1	0.372
2. [N-]=[N+]=NCc1ccccc1C[C@@]1(C(=O)NCc2ccccc2)N=C(c2ccc(OCCCO)cc2)O[C@@H]1c1ccccc1N=[N+]=[N-]	0.0861
3. O=C1OCC=C[C@H]2OC34C=CCN(Cn5nnc6ccccc65)C(=O)[C@H]3N(CCCO)C(=O)[C@@H]4[C@@H]12 (stereo partly specified)	-0.506
4. COCCOC(=O)N1C(=O)[C@@]2(c3ccccc31)[C@H](C(=O)N1CCN(c3ncccn3)CC1)[C@H]1C(=O)O[C@H](c3ccccc3)[C@H](c3ccccc3)N1[C@@H]2c1ccc(O)cc1	0.585
5. CN(C)C(=O)[C@@]1(CCS(=O)(=O)c2ccccc2)N=C(c2ccc(OCCCO)cc2)O[C@H]1c1ccccc1	0.365
6. COC(=O)[C@@]1(Cc2ccc(F)cc2)[C@H]2c3cc(C(=O)N4CCCC4)n(CCc4ccc(O)c(O)c4)c3C[C@H]2CN1C(=O)c1ccccc1	0.842

###

- MEASURED TARGET: Pro-neuregulin-1, membrane-bound isoform (Homo sapiens) (UniProt Q02297)
- Sequence (Q02297 whole entry, looked up, canonical isoform): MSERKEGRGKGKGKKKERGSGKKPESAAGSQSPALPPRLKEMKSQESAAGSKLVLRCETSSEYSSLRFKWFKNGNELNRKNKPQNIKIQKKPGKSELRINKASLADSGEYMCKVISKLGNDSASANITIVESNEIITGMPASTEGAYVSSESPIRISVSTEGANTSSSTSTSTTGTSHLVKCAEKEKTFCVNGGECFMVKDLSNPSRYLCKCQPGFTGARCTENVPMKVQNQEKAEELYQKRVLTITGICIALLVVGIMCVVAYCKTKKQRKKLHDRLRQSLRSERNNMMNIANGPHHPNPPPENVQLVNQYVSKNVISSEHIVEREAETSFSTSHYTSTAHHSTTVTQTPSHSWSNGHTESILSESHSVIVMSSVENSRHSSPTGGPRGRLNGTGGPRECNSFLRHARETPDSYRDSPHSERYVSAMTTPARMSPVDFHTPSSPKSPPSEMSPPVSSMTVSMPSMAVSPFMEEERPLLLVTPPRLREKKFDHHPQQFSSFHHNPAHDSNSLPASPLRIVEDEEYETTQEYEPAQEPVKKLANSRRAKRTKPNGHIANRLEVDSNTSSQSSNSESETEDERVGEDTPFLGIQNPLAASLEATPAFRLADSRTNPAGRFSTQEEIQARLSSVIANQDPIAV
- EXPERIMENTAL DETAILS: NRG1 binders on small-molecule microarrays, primary screen, psychiatric disease protein project, biochemical, small-molecule microarray, fluorescence 635/667 (AID 1075);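 note: score combines 667 nm spot fluorescence with signal to noise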
- MEASUREMENT CONDITIONS: NRG1 binding, 635 nm fluorescence, higher = more signal
Reported composite z-score values for the following molecules.
MEASUREMENT KIND: composite z-score

1. CC(C)N1C(=O)c2ccccc2[C@@H](C(=O)NC2CC2)[C@@H]1c1ccc(CO)cc1	0.933
2. C=C(C)[C@@H]1CC=C(C(O)C2C=CC3C(=O)N(c4ccccc4)C(=O)C3N2Nc2ccccc2F)CC1 (stereo partly specified)	1.94
3. COc1ccc(CCNC(=O)[C@@H]2c3ccccc3C(=O)N(Cc3cc(C(F)(F)F)cc(C(F)(F)F)c3)[C@H]2c2ccc(CO)cc2)cc1	0.568
4. O=C1N(Cc2ccccc2)c2ccccc2[C@@H]2OC(c3ccc(OCCCO)cc3)=N[C@]12Cc1ccccc1	-0.329
5. COC(=O)CCCCCCC(=O)Nc1ccc(NC(=O)CCCC[P+](c2ccccc2)(c2ccccc2)c2ccccc2)cc1	-0.31
6. CCOC(=O)c1ccc(NC(=O)O[C@H]2[C@H](OC(=O)Nc3ccc4c(c3)OCO4)[C@@H](OC(=O)Nc3ccc4c(c3)OCO4)[C@@H](OC)O[C@@H]2CO)cc1	1.74

###

- EXPERIMENTAL DETAILS: basal RPMI8226 mitochondrial membrane potential changes, profiling panel, cell-based, JC-1 fluorescence, 24 h, 100 nL compound (AID 1169); note: test concentration not given here
- MEASUREMENT CONDITIONS: RPMI8226 myeloma, JC-1 mitochondrial potential fluorescence, higher = more signal
Below is a list of entries, each paired with its recorded z-score value.
MEASUREMENT KIND: z-score

1. CC1=C([C@H](O)CCc2ccccc2)[C@H](CO)[C@@H]2C(=O)N(C)C(=O)[C@@H]2C1	-0.0985
2. CC(C)(C)N1CC=CC23O[C@@H]4C=CCCOC(=O)C4[C@H]2C(=O)N(CCO)[C@@H]3C1=O (some centres undefined)	0.168
3. O=C(NCCCCCNC(=O)/C(Cc1ccccc1)=N/O)OCc1ccccc1	0.567
4. O=C(N1CCCCC1)[C@@]1(CCS(=O)(=O)c2ccccc2)COC(c2ccc(OCCCO)cc2)=N1	-1.13
5. CC(C)N1C(=O)c2ccccc2[C@@H](C(=O)NC2CC2)[C@@H]1c1ccc(CO)cc1	0.108
6. CCCCCCc1nc(C2CC2)cc2c1[Si](C(C)C)(C(C)C)O[C@H]2c1ccccc1	0.573
7. O=C(NCC(F)(F)F)[C@@H]1c2ccccc2C(=O)N(Cc2cc(F)cc(C(F)(F)F)c2)[C@H]1c1ccc(CO)cc1	-0.656
8. C=CCN1C(=O)[C@@]2(CCS(=O)(=O)c3ccccc3)N=C(c3ccc(OCCCO)cc3)O[C@H]2c2ccccc21	-0.995
9. N#Cc1ccc(C(O)C2C=CC3C(=O)N(c4ccccc4)C(=O)C3N2Nc2ccccc2)cc1 (centres undefined)	0.173

###

Listing of entries alongside the reported z-score.
- EXPERIMENTAL DETAILS: adipocyte viability effects, profiling panel, cell-based, 3T3-L1 adipocytes, calcein-AM fluorescence, 48 h, basal (AID 1163); note: test concentration not given here
- MEASUREMENT CONDITIONS: 3T3-L1 adipocytes viability, higher = more signal
MEASUREMENT KIND: z-score

1. [N-]=[N+]=NCc1ccccc1C[C@@]1(C(=O)N2CCCCC2)N=C(c2ccc(OCCCO)cc2)O[C@@H]1c1ccccc1	-0.813
2. [N-]=[N+]=NCc1ccccc1[C@H]1OC(c2ccc(OCCCO)cc2)=N[C@@]1(CCS(=O)(=O)c1ccccc1)C(=O)NCC(O)CO (stereo partly specified)	0.538
3. O=C1NC(=O)C2C1C=CC(C(O)c1ccco1)N2Nc1ccccn1 (stereo unspecified)	-0.0855
4. CCC[C@@H]1C[C@@]1(CCC)[C@@H](NC(=O)OCc1ccccc1)c1ccc(-c2ccccc2)cc1	-1.15
5. COC(=O)C1=CC(CCCO)=CC(C2CC2)N(C)C=C1C(=O)OC (stereo unspecified)	0.435
6. O=C(CS)NCCCCCNC(=O)[C@@H]1C[C@@H]2C(=O)N3CCC[C@H]3C(=O)N2[C@@H]1c1cccc(OCCO)c1	0.195

###

- EXPERIMENTAL DETAILS: MM1S myeloma cell viability, profiling panel, resazurin fluorescence, basal, 24 h, PK04 Diversity Set (AID 1174);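 note: MM1S multiple myeloma cell line; test concentration not given here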
- MEASUREMENT CONDITIONS: higher = more signal, called active from +8 up or from −8 down
Listing of recorded z-score by entry.
MEASUREMENT KIND: z-score

1) Cc1ccccc1C(O)C1C=CC2C(=O)N(C)C(=O)C2N1N(c1ccccc1)c1ccccc1 (stereo not drawn)	-0.166
2) O=C1NC(=O)C2C1C=CC(C(O)c1c(F)cccc1Cl)N2Nc1ccc(Cl)cc1Cl (stereo not drawn)	-2.21
3) COC(=O)C1=CC(CCCO)=CC(C2CC2)N(C)C=C1C(=O)OC (stereo not drawn)	-0.463
4) CC(C)[Si](C#CCCCC#N)(O[C@H](c1ccccc1)c1cn([C@H](CO)Cc2ccccc2)nn1)C(C)C	0.288
5) O=C1O[C@@H](c2ccccc2)[C@@H](c2ccccc2)N2[C@@H](c3ccc(OCCO)cc3)[C@]3(C(=O)Nc4ccccc43)[C@@H](C(=O)O)[C@H]12	0.432
6) Cc1cc(C)cc(N2C(=O)CSC2c2cccc([N+](=O)[O-])c2)c1 (stereo not drawn)	-1.81
7) O=C1OCCC/C=C\[C@H]2OC34C=CCN(CCN5CCOCC5)C(=O)[C@H]3N(CCCCCCO)C(=O)[C@@H]4C12 (stereo partly drawn)	0.828
8) CCOC(=O)C[C@H]1[C@H](OC(=O)c2ccccc2-c2ccccc2)[C@@H](NC(=O)C2CCCCC2)c2cc(OCCCO)ccc2N1C(=O)Cc1ccc(OC)cc1	-0.257

###

- EXPERIMENTAL DETAILS: HepG2 cell viability effects, profiling panel, calcein-AM fluorescence, 48 h, basal (AID 1164); note: test concentration not given here
- MEASUREMENT CONDITIONS: higher = more signal
MEASUREMENT KIND: z-score

1. COC(=O)[C@@]1(Cc2ccccc2)[C@H]2c3cc(C(=O)N(C)C)n(Cc4c(CO)[nH]cc(C)c4=O)c3C[C@H]2CN1C(=O)c1ccccc1	1.2
2. C=C(/C(=C/C[C@@H](OC(C)=O)c1cccc(OCCO)c1)c1cc(C(=O)OC)ccc1OC)C(C)C	-0.159
3. CN(C)CCCNC(=O)[C@@]1(C)c2ccccc2C(=O)N(Cc2ccccc2)[C@H]1c1ccc(CO)cc1	0.339
4. COc1ccc([Si](C)(C)[C@@H]2[C@@H](CCO)O[C@]3(C(=O)N(Cc4ccc(N5CCCCC5=O)cc4)c4ccccc43)[C@H]2C)cc1	-0.347
5. COC(=O)[C@@]1(Cc2ccc(OC)cc2)[C@H]2c3cc(C(=O)N(C)C)n(Cc4ccc(Cl)c(C(F)(F)F)c4)c3C[C@H]2CN1C(=O)c1ccccc1	-0.585
6. COC(=O)C(CC#Cc1ccc2c(c1)[C@]1(C(=O)N2)[C@H](c2ccccc2OCCO)N2[C@H](c3ccccc3)[C@H](c3ccccc3)OC(=O)[C@H]2[C@@H]1C(=O)NC[C@H](O)c1ccccc1)C(=O)OC	0.876
7. COC(=O)[C@@]1(Cc2ccc(OC)cc2)[C@H]2c3cc(C(=O)N(C)C)n(CCO)c3C[C@H]2CN1C(=O)c1ccccc1	-0.516
